biological target: Sigma-1 receptor; experiment: Sigma-1 receptor competitive radioligand binding assay; conditions: read-out: Sigma-1 Receptor Affinity, Ki
pKi: −log10 of the molar value.
property: pKi

query_smiles=COc1cc(CCC(C)(C)N2Cc3cccc(S(C)(=O)=O)c3C2)ccc1O target_under_test="Sigma-1 receptor" number=6.74

(P) CC(C)Oc1cc(CCC(C)(C)N2Cc3cccc(F)c3C2)ccc1O
(Q) C[C@H](CCc1ccc(Cl)c(Cl)c1)N1Cc2cc3c(cc2C1)OCO3
(R) C[C@H](CCc1ccc(O)c(OC(C)(C)C)c1)N1Cc2ccc(S(C)(=O)=O)cc2C1
(S) COc1cc(CC[C@@H](C)N2Cc3cccc(F)c3C2)ccc1O
Input line: I would appreciate it if you could sort these 4 molecules by pKi, starting from the smallest number. Please express your ranking as an ordered list of the labels.
Output line: P, S, R, Q
(P: 6.92, S: 7.39, R: 7.77, Q: 8.85)
